Would you mind telling me the reported EC50 of each entry?
# Tested on: human PBMC
# Assay Text: Human PBMC TNF-α secretion, ELISA
# Assay type: cell-based
# Study Conditions: Table 1; human PBMC overnight culture; with DOTAP; read-out: TNF-α + DOTAP EC50
Numbers only, in nM.

GUGUGUGU [R 1058]
200

Next substance, EC50 to be filled in.
Lab note: human PBMC assay, enter EC50 for G*U*G*U*G*U*G*U [R 1006] here 2800

* * *

Would you mind telling me the reported pEC50 of each entry?
# Test system: human PBMC
# Assay Text: Human PBMC IL-6 secretion, ELISA
# Format: cell-based
# Study Conditions: Table 4, DNA:RNA conjugates; human PBMC overnight; including DOTAP
Oligonucleotides are written 5' to 3', each unit as a sugar letter and its base; * is a phosphorothioate linkage, no mark a phosphodiester; rarer units and linkages stand in square brackets, end groups in braces. Plain capitals give the bases only. d = 2'-deoxy (DNA); r = 2'-OH (RNA)
Numbers only, as −log10 of the molar value.

G*U*G*U*G*U*G*U*dT*dT*dT*dT*dT*dT (rG*rU*rG*rU*rG*rU*rG*rU*dT*dT*dT*dT*dT*dT) [R 1062]
6.40

Next substance, pEC50 to be filled in.
Lab note: human PBMC assay, enter pEC50 for dT*dT*dT*dT*dT*G*U*G*U*G*U*G*U (dT*dT*dT*dT*dT*rG*rU*rG*rU*rG*rU*rG*rU) [R 1063] here 6.10

* * *

# System: human PBMC
# Assay Text: Human PBMC TNF-α secretion, ELISA
# Assay type: cell-based
# Study Conditions: Table 4, DNA:RNA conjugates; human PBMC overnight; including DOTAP
Oligonucleotides are written 5' to 3', each unit as a sugar letter and its base; * is a phosphorothioate linkage, no mark a phosphodiester; rarer units and linkages stand in square brackets, end groups in braces. Plain capitals give the bases only. d = 2'-deoxy (DNA); r = 2'-OH (RNA)
Measured Metric: TNF-α max (pg/mL)
One number for each entry, in pg/mL.

G*U*G*U*G*U*G*U_dG_dG*dG*dG*dG*dG (rG*rU*rG*rU*rG*rU*rG*rUdGdG*dG*dG*dG*dG) [R 1060]
20000
dT*dT*dT*dT*dT*G*U*G*U*G*U*G*U (dT*dT*dT*dT*dT*rG*rU*rG*rU*rG*rU*rG*rU) [R 1063]
60000

Each substance below has a reported value. Please supply its TNF-α max.
1. dG*dG*dG*dG_dG_G*U*G*U*G*U*G*U (dG*dG*dG*dGdGrG*rU*rG*rU*rG*rU*rG*rU) [R 1061]
2. G*U*G*U*G*U*G*U*dT*dT*dT*dT*dT*dT (rG*rU*rG*rU*rG*rU*rG*rU*dT*dT*dT*dT*dT*dT) [R 1062]

[20000, 80000]

* * *

# Test system: human PBMC
# Assay Text: Human PBMC TNF-α secretion, ELISA
# Type: cell-based
# Study Conditions: Table 2, oligomer length; human PBMC overnight; including DOTAP; read-out: TNF-α EC50
Would you mind telling me the reported EC50 of each entry?
Give bare numbers, in nM.

Past entries and their recorded results:
GUGUGUG [R 1048]
2200
G*U*G*U*G*U*G*U [R 1006]
2800

Next substance, EC50 to be filled in.
Identify measured EC50 associated with GUGUGU [R 1049] 6700

* * *

Would you mind telling me the reported pEC50 of each entry?
# Test system: human PBMC
# Assay Text: Human PBMC IFN-α secretion, ELISA
# Format: cell-based
# Study Conditions: Table 2, oligomer length; human PBMC overnight; including DOTAP; read-out: IFN-α EC50
Answers are plain numbers, as −log10 of the molar value.

GUGUGUG [R 1048]
5.34

Each substance below has a reported value. Please supply its pEC50.
1. GUGUGU [R 1049]
2. G*U*G*U*G*U*G*U [R 1006]

1: 5.32; 2: 5.35

* * *

# System: human PBMC
# Assay Text: Human PBMC TNF-α secretion, ELISA
# Type: cell-based
# Study Conditions: Table 4, DNA:RNA conjugates; human PBMC overnight; including DOTAP; read-out: TNF-α EC50
Oligonucleotides are written 5' to 3', each unit as a sugar letter and its base; * is a phosphorothioate linkage, no mark a phosphodiester; rarer units and linkages stand in square brackets, end groups in braces. Plain capitals give the bases only. d = 2'-deoxy (DNA); r = 2'-OH (RNA)
Measured Metric: EC50 (µM)
Answers are plain numbers, in µM.

Past entries and their recorded results:
dT*dT*dT*dT*dT*G*U*G*U*G*U*G*U (dT*dT*dT*dT*dT*rG*rU*rG*rU*rG*rU*rG*rU) [R 1063]
0.3
G*U*G*U*G*U*G*U_dG_dG*dG*dG*dG*dG (rG*rU*rG*rU*rG*rU*rG*rUdGdG*dG*dG*dG*dG) [R 1060]
4.9
G*U*G*U*G*U*G*U*dT*dT*dT*dT*dT*dT (rG*rU*rG*rU*rG*rU*rG*rU*dT*dT*dT*dT*dT*dT) [R 1062]
0.3

Next substance, EC50 to be filled in.
Identify measured EC50 associated with dG*dG*dG*dG_dG_G*U*G*U*G*U*G*U (dG*dG*dG*dGdGrG*rU*rG*rU*rG*rU*rG*rU) [R 1061] 4.3
